measurement_target: V2 Receptor (Rattus norvegicus)
Construct: rat kidney plasma membrane preparations
Sequence (Q00788 whole entry): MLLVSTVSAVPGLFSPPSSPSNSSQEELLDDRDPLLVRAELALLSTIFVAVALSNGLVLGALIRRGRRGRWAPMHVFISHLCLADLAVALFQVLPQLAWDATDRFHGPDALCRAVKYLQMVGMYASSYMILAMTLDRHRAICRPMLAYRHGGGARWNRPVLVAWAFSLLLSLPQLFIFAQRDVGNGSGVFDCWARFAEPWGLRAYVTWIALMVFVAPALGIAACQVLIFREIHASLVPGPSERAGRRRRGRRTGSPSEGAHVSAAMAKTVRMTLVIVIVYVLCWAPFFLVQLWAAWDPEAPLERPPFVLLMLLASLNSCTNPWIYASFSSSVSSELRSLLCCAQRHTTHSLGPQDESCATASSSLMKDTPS
experiment_description: V2 Receptor Binding Assay ([3H]-Arg-vasopressin, rat kidney plasma membrane)
test_settings: 4° C., pH 8.0
Structures can show the parent of a compound that is named as a salt.
reported_metric: IC50 (µM)

Example entries begin here.
[
  {
    "molecule": "CSCC[C@H](N)C(=O)OC1CCCN(C(=O)c2ccc(NC(=O)c3ccccc3C)cc2Cl)c2ccccc21 (single isomer, unassigned) [Test Compound 10, hydrochloride]",
    "reported_metric": "IC50",
    "unit_tag": "µM",
    "experimental_result": 0.083
  },
  {
    "molecule": "Cc1ccccc1C(=O)Nc1ccc(C(=O)N2CCCC(OC(=O)[C@@H](N)C(C)C)c3cc(Cl)ccc32)c(C)c1 (single isomer, unassigned) [Test Compound 15, hydrochloride]",
    "reported_metric": "IC50",
    "unit_tag": "µM",
    "experimental_result": 0.014
  },
  {
    "molecule": "Cc1ccccc1C(=O)Nc1ccc(C(=O)N2CCCC(CC(=O)N3CCCC3)c3cc(F)ccc32)cc1 (stereo not drawn)",
    "reported_metric": "IC50",
    "unit_tag": "µM",
    "experimental_result": 0.015
  },
  {
    "molecule": "Cc1ccccc1C(=O)Nc1ccc(C(=O)N2CCCC(COC(=O)CN(C)C)c3cc(Cl)ccc32)cc1 (stereo not drawn) [Test Compound 25, hydrochloride]",
    "reported_metric": "IC50",
    "unit_tag": "µM",
    "experimental_result": 0.004
  },
  {
    "molecule": "CCOC(=O)CC1CCCN(C(=O)c2ccc(NC(=O)c3ccccc3C)cc2OC)c2ccc(Cl)cc21 (stereo not drawn)",
    "reported_metric": "IC50",
    "unit_tag": "µM",
    "experimental_result": 0.009
  }
]

(I) COc1cc(NC(=O)c2ccccc2C)ccc1C(=O)N1CCCC(OC(=O)CN2CCOCC2)c2cc(Cl)ccc21 (stereo not drawn) [Test Compound 17, hydrochloride]
(II) CN(C)C(=O)COc1ccc2c(c1)C(N(C)C)CCCN2C(=O)c1ccc(NC(=O)c2ccccc2Cl)cc1Cl (stereo not drawn)
Returns: the label, I or II , whose recorded IC50 is the lower number. Give the label under which the chosen entry appears. I
